# STUDY SYSTEM: FRMPD4, Q14CM0
# Sequence (Q14CM0 67-160): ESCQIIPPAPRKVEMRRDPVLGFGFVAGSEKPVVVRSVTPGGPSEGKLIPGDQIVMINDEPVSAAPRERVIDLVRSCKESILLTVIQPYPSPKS
# METHOD NOTES: holdup assay
# Design: key: below the threshold = too weak to quantify, mostly under pKd 3.1 to 4
# CONDITION PARAMETERS: plain residues with an end cap or a label only (N-terminal biotin on a linker: ahx)
OUTCOME MEASURE: pKd

BINDER	VALUE REPORTED
PKMKLNETSF [SHKBP1, Q8TBC3]	below the threshold
SAPATLSSRA [PDLIM2, Q96JY6]	below the threshold
ADENEQVSAV [RAPGEF6, Q8TEU7]	below the threshold
YNSFLSVTTV [PDZRN3, Q9UPQ7]	below the threshold
KDECVIATEV [DLL1, O00548]	below the threshold
VNENQKEYFF [CNTNAP4, Q9C0A0]	4.65
KEYDDELTFF [USH1C, Q9Y6N9]	4.42
SKKNELFSNL [NHERF1, O14745]	below the threshold

# input Item HSATSVHTSV [MTMR1, Q13613] has what recorded pKd?
# output below the threshold

# input What do you have for AKPQPVDSWV [ARVCF, O00192] ?
# output below the threshold
